Tested on: 945468-187-T-J3-PDC spheroids with HUVEC/MSC, viability
Test: Anticancer human tumor 945468-187-T-J3-PDC patient-derived rectal carcinoma cell line growth inhibition [PI3K]
Settings: second compound 10 µM; first compound 1 µM; stronger effect = lower value
For each record, check the reported viability, T/C: if it is below 60% write Criterion met, else write Criterion not met.

Report whether reported viability, T/C is lower than 60% (strictly) for Cn1ncc(Cl)c1-c1cc(C(=O)NC(CN)Cc2cccc(F)c2)sc1Cl (stereo not given) + CC(Nc1ncnc2nc[nH]c12)c1cc2cccc(Cl)c2c(=O)n1-c1ccccc1
Criterion met

Hi there! Is viability, T/C for CC(C)NCC(C(=O)N1CCN(c2ncnc3c2C(C)CC3O)CC1)c1ccc(Cl)cc1 (stereo not given) + CC(Nc1ncnc2nc[nH]c12)c1cc2cccc(Cl)c2c(=O)n1-c1ccccc1 below 60%, do you know?
Criterion not met

Please state whether viability, T/C is below 60% for C[C@@H](NC(=O)c1ncnc(N)c1Cl)c1ncc(C(=O)Nc2cc(C(F)(F)F)c(Cl)cn2)s1 + CC(Nc1ncnc2nc[nH]c12)c1cc2cccc(Cl)c2c(=O)n1-c1ccccc1
Criterion not met

Please determine if CCCS(=O)(=O)Nc1ccc(F)c(C(=O)c2c[nH]c3ncc(-c4ccc(Cl)cc4)cc23)c1F + CC(Nc1ncnc2nc[nH]c12)c1cc2cccc(Cl)c2c(=O)n1-c1ccccc1 is below 60% in terms of viability, T/C.
Criterion not met

Consider CC(Cn1ccc(-c2ccc(C#N)c(Cl)c2)n1)NC(=O)c1cc(C(C)O)[nH]n1 (stereo not given) + CC(Nc1ncnc2nc[nH]c12)c1cc2cccc(Cl)c2c(=O)n1-c1ccccc1 . Does its viability, T/C lie strictly below 60%?
Criterion not met

Regarding C[C@@H](NC(=O)c1ncnc(N)c1Cl)c1ncc(C(=O)Nc2cc(C(F)(F)F)c(Cl)cn2)s1 + Cc1nc(NC(=O)N2CCCC2C(N)=O)sc1-c1ccnc(C(C)(C)C(F)(F)F)c1 , kindly confirm whether its viability, T/C is beneath 60%.
Criterion met

viability, T/C under 60%? Item: CNC(=O)c1ccc(N2C(=S)N(c3ccc(C#N)c(C(F)(F)F)c3)C(=O)C2(C)C)cc1F + CC(Nc1ncnc2nc[nH]c12)c1cc2cccc(Cl)c2c(=O)n1-c1ccccc1
Criterion not met

Could you please tell me whether viability, T/C recorded for Cn1ncc(Cl)c1-c1cc(C(=O)NC(CN)Cc2cccc(F)c2)sc1Cl (stereo not given) + Cc1nc(NC(=O)N2CCCC2C(N)=O)sc1-c1ccnc(C(C)(C)C(F)(F)F)c1 is less than 60%?
Criterion met

viability, T/C strictly < 60% for this compound? CCN1CCN(Cc2ccc(Nc3ncc(F)c(-c4cc(F)c5nc(C)n(C(C)C)c5c4)n3)nc2)CC1 + CC(Nc1ncnc2nc[nH]c12)c1cc2cccc(Cl)c2c(=O)n1-c1ccccc1
Criterion met

---

// values below are reported viability, T/C
System: 945468-187-T-J3-PDC spheroids with HUVEC/MSC, viability
Experiment: Anticancer human tumor 945468-187-T-J3-PDC cell line growth inhibition [PI3K];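 also: spheroids exposed to agents for 7 days before viability read; 100% = DMSO vehicle control viability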
Details: second compound 0.1 µM; first compound 0.316 µM; stronger effect = lower value
Text: Combinatorial screen of targeted agents with the PI3K inhibitors inavolisib, alpelisib, duvelisib, and copanlisib in multi-cell type tumor spheroids A high-throughput screen of multi-cell type tumor spheroids was designed to identify active combinations of targeted small molecules and PI3K pathway inhibitors. […] Compounds. […] If the clinical Cmax for an agent had not been determined, the highest concentration tested was 10 microM. […]
Numbers only; they are read as %.

Here are 3 compounds together with their reported answers.
[[record]]
compound = "CC1(C)CCC(Nc2ncc(C(F)(F)F)c(-c3c[nH]c4c(P(C)(C)=O)c(C#N)ccc34)n2)CN1 (centres undefined) + COc1c(OCCCN2CCOCC2)ccc2c3n(c(=NC(=O)c4cnc(N)nc4)nc12)CCN3"
test_readout = "viability, T/C"
u = "%"
measured = 34.3

[[record]]
compound = "C[C@@H](NC(=O)c1ncnc(N)c1Cl)c1ncc(C(=O)Nc2cc(C(F)(F)F)c(Cl)cn2)s1 + Cc1nc(NC(=O)N2CCCC2C(N)=O)sc1-c1ccnc(C(C)(C)C(F)(F)F)c1"
test_readout = "viability, T/C"
u = "%"
measured = 94.8

[[record]]
compound = "CNC(=O)c1ccc(N2C(=S)N(c3ccc(C#N)c(C(F)(F)F)c3)C(=O)C2(C)C)cc1F + CC(Nc1ncnc2nc[nH]c12)c1cc2cccc(Cl)c2c(=O)n1-c1ccccc1"
test_readout = "viability, T/C"
u = "%"
measured = 94.1


With those in mind, consider the next compound.
Which viability, T/C value is on record for C[C@@H](NC(=O)c1ncnc(N)c1Cl)c1ncc(C(=O)Nc2cc(C(F)(F)F)c(Cl)cn2)s1 + COc1c(OCCCN2CCOCC2)ccc2c3n(c(=NC(=O)c4cnc(N)nc4)nc12)CCN3 ?
39

---

Tested on: 945468-187-T-J3-PDC spheroids with HUVEC/MSC, viability
Test: Anticancer human tumor 945468-187-T-J3-PDC cell line growth inhibition [PI3K];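 also: spheroids exposed to agents for 7 days before viability read; 100% = DMSO vehicle control viability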
Conditions: second compound 0.316 µM; first compound 0.0316 µM; stronger effect = lower value
Excerpt: Combinatorial screen of targeted agents with the PI3K inhibitors inavolisib, alpelisib, duvelisib, and copanlisib in multi-cell type tumor spheroids A high-throughput screen of multi-cell type tumor spheroids was designed to identify active combinations of targeted small molecules and PI3K pathway inhibitors. […] Compounds. […] If the clinical Cmax for an agent had not been determined, the highest concentration tested was 10 microM. […]
Consider the following compounds and their measured viability, T/C readings.
Supply the numeric figure in %, leaving out any unit text.

[[record]]
compound = "C#Cc1c(F)ccc2cc(O)cc(-c3ncc4c(N5CC6CCC(C5)N6)nc(OCC56CCCN5CC(F)C6)nc4c3F)c12 (centres undefined) + CC(Nc1ccc2c(c1)OCCn1cc(N3C(=O)OCC3C(F)F)nc1-2)C(N)=O"
tested_target = "945468-187-T-J3-PDC spheroids with HUVEC/MSC, viability"
test_readout = "viability, T/C"
measured = 111


Which viability, T/C reading was recorded for the compound CC(Cn1ccc(-c2ccc(C#N)c(Cl)c2)n1)NC(=O)c1cc(C(C)O)[nH]n1 (centres undefined) + Cc1nc(NC(=O)N2CCCC2C(N)=O)sc1-c1ccnc(C(C)(C)C(F)(F)F)c1 ?
95.6

Recorded viability, T/C for Cn1nccc1Nc1nccc(-c2ccn(C(CO)c3ccc(Cl)c(F)c3)c(=O)c2)n1 (centres undefined) + CC(Nc1ncnc2nc[nH]c12)c1cc2cccc(Cl)c2c(=O)n1-c1ccccc1 , please?
93.3

Give the measured viability, T/C of CCN1CCN(Cc2ccc(Nc3ncc(F)c(-c4cc(F)c5nc(C)n(C(C)C)c5c4)n3)nc2)CC1 + COc1c(OCCCN2CCOCC2)ccc2c3n(c(=NC(=O)c4cnc(N)nc4)nc12)CCN3 .
14.8

What value of viability, T/C has been recorded for this entry: Cn1nccc1Nc1nccc(-c2ccn(C(CO)c3ccc(Cl)c(F)c3)c(=O)c2)n1 (centres undefined) + CC(Nc1ccc2c(c1)OCCn1cc(N3C(=O)OCC3C(F)F)nc1-2)C(N)=O
97.3

State the recorded viability, T/C for this entry: C[C@@H](NC(=O)c1ncnc(N)c1Cl)c1ncc(C(=O)Nc2cc(C(F)(F)F)c(Cl)cn2)s1 + CC(Nc1ccc2c(c1)OCCn1cc(N3C(=O)OCC3C(F)F)nc1-2)C(N)=O
109

Given the entry CCN1CCN(Cc2ccc(Nc3ncc(F)c(-c4cc(F)c5nc(C)n(C(C)C)c5c4)n3)nc2)CC1 + Cc1nc(NC(=O)N2CCCC2C(N)=O)sc1-c1ccnc(C(C)(C)C(F)(F)F)c1 , report its measured viability, T/C.
95.6

Reported viability, T/C, compound CCCS(=O)(=O)Nc1ccc(F)c(C(=O)c2c[nH]c3ncc(-c4ccc(Cl)cc4)cc23)c1F + CC(Nc1ncnc2nc[nH]c12)c1cc2cccc(Cl)c2c(=O)n1-c1ccccc1 : ____
102

// lookup viability, T/C for CC(C)n1nc(-c2ccc3oc(N)nc3c2)c2c(N)ncnc21 + Cc1nc(NC(=O)N2CCCC2C(N)=O)sc1-c1ccnc(C(C)(C)C(F)(F)F)c1
111

---

Test system: 945468-187-T-J3-PDC spheroids with HUVEC/MSC, viability
Assay: Anticancer human tumor 945468-187-T-J3-PDC cell line growth inhibition [PI3K];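 also: spheroids exposed to agents for 7 days before viability read; 100% = DMSO vehicle control viability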
Conditions: second compound 3.16 µM; first compound 0.01 µM; stronger effect = lower value
// reported viability, T/C per item
State the answer as a number, implicitly in %.

[[record]]
compound = "CC(=O)c1c(C)c2cnc(Nc3ccc(N4CCNCC4)cn3)nc2n(C2CCCC2)c1=O + Cc1nc(NC(=O)N2CCCC2C(N)=O)sc1-c1ccnc(C(C)(C)C(F)(F)F)c1"
u = "%"
measured = 90.7

[[record]]
compound = "CCN1CCN(Cc2ccc(Nc3ncc(F)c(-c4cc(F)c5nc(C)n(C(C)C)c5c4)n3)nc2)CC1 + CC(Nc1ncnc2nc[nH]c12)c1cc2cccc(Cl)c2c(=O)n1-c1ccccc1"
u = "%"
measured = 101


Recorded viability, T/C of Cn1ncnc1[C@H]1c2n[nH]c(=O)c3cc(F)cc(c23)N[C@@H]1c1ccc(F)cc1 + CC(Nc1ncnc2nc[nH]c12)c1cc2cccc(Cl)c2c(=O)n1-c1ccccc1 , please.
100

Requested read-out: viability, T/C. Entry: Cn1ncnc1[C@H]1c2n[nH]c(=O)c3cc(F)cc(c23)N[C@@H]1c1ccc(F)cc1 + Cc1nc(NC(=O)N2CCCC2C(N)=O)sc1-c1ccnc(C(C)(C)C(F)(F)F)c1
109

Name the reported viability, T/C value associated with the compound CC(=O)c1c(C)c2cnc(Nc3ccc(N4CCNCC4)cn3)nc2n(C2CCCC2)c1=O + CC(Nc1ncnc2nc[nH]c12)c1cc2cccc(Cl)c2c(=O)n1-c1ccccc1
98.6
